The origin of these recorded values is patent US5527781A.

System: Escherichia coli K-12 R5
Assay: microbe, parasite or virus in culture
Assay type: cell-based
Settings: K12R5; Escherichia coli K-12 R5; resistance mechanism AAC(6'); Mueller-Hinton agar, 37° C
Provide the recorded MIC for the entries that follow.
I only need the number, in µg/mL, no unit after it.

Input line: State the recorded MIC for this entry: CN[C@@H]1[C@@H](O)[C@@H](O[C@H]2[C@H](N)C[C@H](N)[C@@H](O[C@H]3O[C@H]([C@@H](C)N)CC[C@H]3N)C2(F)F)OC[C@]1(C)O [Compound 5FF-Genta-C2, 5-deoxy-5,5-difluorogentamicin C2]
Output line: 1.56

Input line: Ok, now NC[C@H]1O[C@H](O[C@@H]2[C@@H](N)C[C@@H](N)[C@H](O[C@H]3O[C@H](CO)[C@@H](O)[C@H](N)[C@H]3O)C2(F)F)[C@H](N)C[C@@H]1O [Compound 5FF-TOB, 5-deoxy-5,5-difluorotobramycin]
Output line: 25

Input line: Ok, now NC[C@@H]1CC[C@@H](N)[C@@H](O[C@@H]2[C@@H](N)C[C@@H](N)[C@H](O[C@H]3O[C@H](CO)[C@@H](O)[C@H](N)[C@H]3O)C2(F)F)O1 [Compound 5FF-DKB, 5,3',4'-trideoxy-5,5-difluorokanamycin B]
Output line: 100

Input line: Ok, now NC[C@H]1O[C@H](O[C@H]2[C@H](O)[C@@H](O[C@H]3O[C@H](CO)[C@@H](O)[C@H](N)[C@H]3O)[C@H](N)C[C@@H]2N)[C@H](N)C[C@@H]1O [TOB, 3'-deoxykanamycin B, reference compound]
Output line: 25
